Target: yeast methionine acetyltransferase (M-N^α AT) (Saccharomyces cerevisiae)
Construct: a crude yeast homogenate from the aaa1 mutant strain; endogenous in cells; host or cells: Saccharomyces cerevisiae strain T3A-a (aaa1), crude lysate
Sequence (Q06504 1-195): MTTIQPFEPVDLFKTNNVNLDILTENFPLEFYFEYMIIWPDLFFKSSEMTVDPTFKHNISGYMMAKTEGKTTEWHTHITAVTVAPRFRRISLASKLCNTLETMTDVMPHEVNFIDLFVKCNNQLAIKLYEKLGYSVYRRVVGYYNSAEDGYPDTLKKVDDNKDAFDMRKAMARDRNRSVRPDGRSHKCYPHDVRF
Sequence (Q12387 2-796 partner limits assumed): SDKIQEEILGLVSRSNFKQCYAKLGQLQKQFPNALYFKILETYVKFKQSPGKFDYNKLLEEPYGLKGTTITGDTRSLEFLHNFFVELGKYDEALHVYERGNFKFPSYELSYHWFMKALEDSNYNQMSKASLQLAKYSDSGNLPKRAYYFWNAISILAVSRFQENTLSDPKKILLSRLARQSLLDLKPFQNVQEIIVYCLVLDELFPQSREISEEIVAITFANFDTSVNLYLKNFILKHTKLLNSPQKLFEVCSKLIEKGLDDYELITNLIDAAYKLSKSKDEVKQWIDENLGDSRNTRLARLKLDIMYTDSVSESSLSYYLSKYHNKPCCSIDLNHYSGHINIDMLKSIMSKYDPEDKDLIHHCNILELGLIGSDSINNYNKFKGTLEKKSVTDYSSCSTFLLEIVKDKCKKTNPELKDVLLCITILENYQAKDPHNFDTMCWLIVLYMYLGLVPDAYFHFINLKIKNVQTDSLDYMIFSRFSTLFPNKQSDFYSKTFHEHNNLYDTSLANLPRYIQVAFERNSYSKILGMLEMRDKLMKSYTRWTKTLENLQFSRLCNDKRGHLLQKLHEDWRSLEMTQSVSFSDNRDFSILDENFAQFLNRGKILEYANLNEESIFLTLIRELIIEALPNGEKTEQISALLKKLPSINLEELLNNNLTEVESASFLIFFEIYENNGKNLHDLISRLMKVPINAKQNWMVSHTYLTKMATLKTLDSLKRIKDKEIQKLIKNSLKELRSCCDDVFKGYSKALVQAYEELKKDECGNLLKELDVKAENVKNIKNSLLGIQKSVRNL
Test: Relative activity of yeast methionine acetyltransferase for N^α -acetylation of synthetic peptides (PAI analogues)
Type: biochemical
Parameters: tested at 50 µM
Conditions: Table 5; mean ± SD (N=3-5); normalized to yeast proteinase A inhibitor 3
What Activity (%) was measured for each of the following?
Answers are plain numbers, in %.

Some solved entries appear below for comparison.
[Pro2 ]PROTEINASE A INHIBITOR 3 (1-24) (Yeast): synthetic PAI analogue with substitution at penultimate position (Pro) (MPTDQQKVSEIFQSSKEKLQGDAK; UniProt P01094 1-24, looked up, variant N2P) ... 0
[Gln2 ]PROTEINASE A INHIBITOR 3 (1-24) (Yeast): synthetic PAI analogue with substitution at penultimate position (Gln) (MQTDQQKVSEIFQSSKEKLQGDAK; UniProt P01094 1-24, looked up, variant N2Q) ... 9
[His2 ]PROTEINASE A INHIBITOR 3 (1-24) (Yeast): synthetic PAI analogue with substitution at penultimate position (His) (MHTDQQKVSEIFQSSKEKLQGDAK; UniProt P01094 1-24, looked up, variant N2H) ... 0

Continue with the next substance.
Qu. Query for yeast methionine acetyltransferase (M-N^α AT) (Saccharomyces cerevisiae): what Activity (%) does the record show for [Asp2 ]PROTEINASE A INHIBITOR 3 (1-24) (Yeast): synthetic PAI analogue with substitution at penultimate position (Asp) (MDTDQQKVSEIFQSSKEKLQGDAK; UniProt P01094 1-24, looked up, variant N2D) ?
Ans. 55

From: patent US5223421A
